# assay: amyloid nucleation score (Sup35N fusion, yeast selection) (log enrichment); library NNK2; higher = more nucleation; inactive = no reads after selection;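 also: zero at mode of non-aggregating sequences after 7 days selection at 30°C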
Assign class by amyloid nucleation score: not lower than 0.3 means true; lower than 0.3 means false.

substance: WGRWSHRWAFHYRACS
assigned_class: false

substance: RLASSIRWTTFSSDGRVRIL
assigned_class: true

substance: YVRMMTNSTLLGRGLKYLCV
assigned_class: true

substance: TPVQDNYSYFIFKPIDESIA
assigned_class: true

substance: GSVTRGVRRAY
assigned_class: true

substance: EHRSVRDLKRMQCEIYSRGV
assigned_class: false

substance: GITYVVHSTRGTYREPEGPW
assigned_class: true

substance: MINFHKHGLTI
assigned_class: false

substance: YLGICTMFDTGIGEIFTCCT
assigned_class: true

substance: IKNSRNVLLMPLLANHWHNS
assigned_class: false

substance: LLDLALRLTMGLITKHEANK
assigned_class: true

substance: CCFVLTVR
assigned_class: true

substance: FEVLIFVDCWFVVMGRETLN
assigned_class: true

substance: YLYGGVYKIKIMILPFDRAL
assigned_class: true

substance: YCSYQVVRGRPSVAGRDNLQ
assigned_class: false

substance: MAACCHKLWLTCFDTVRMFN
assigned_class: false

substance: EALSKLFFYSWERSFHNGEG
assigned_class: true

substance: ANNICCGASEKYGRWASTID
assigned_class: false

substance: GRMNTLDTFLTMAISDDASF
assigned_class: false

substance: CHKSACCKILVDDIALFN
assigned_class: false

substance: WLFIVFSTLS
assigned_class: false

substance: CYAIMNGVSFLDLIGGARET
assigned_class: true

substance: TLGTIPIWTEIRPEYNSPLM
assigned_class: true

substance: MIQHICELLG
assigned_class: false

substance: LHFSGFTKFRFIMVFGKKVC
assigned_class: false

substance: SSKSCVPQVLINILDDSTVN
assigned_class: false

substance: LLTAFTTYYLIYHSFSRYLA
assigned_class: false

substance: MNLSGVQVAMFSSQPVALTG
assigned_class: false

substance: PRCLDLLDIFV
assigned_class: false
